Hello, the source for this data is the supplement of paper PMC10126150, in case you need it.

Tested on: ATP;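 note: ATP exposure 15 min at 22 °C before imaging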
experiment_description: switch fluorescence ratio, 500 uM ATP over buffer (Cy3 cluster intensity, sum of 5 cycles each) (fold (ratio)); higher = stronger signal-on switching upon ATP binding; sequences stand for … in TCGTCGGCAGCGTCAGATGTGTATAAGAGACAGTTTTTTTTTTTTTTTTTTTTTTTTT…TC
experimental_parameters: aptamer strand: ATP DNA aptamer (quencher-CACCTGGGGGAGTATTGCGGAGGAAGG + anchor), 100 nM annealed; ATP concentration: 500 uM
Reported switch fluorescence ratio is given for each of the following sequences.

- residue_codes: "AGTTATTAGG"
  study_system: "ATP"
  switch fluorescence ratio: 1.02
- residue_codes: "AGAATGGCAG"
  study_system: "ATP"
  switch fluorescence ratio: 0.991
- residue_codes: "GAGCGATGGT"
  study_system: "ATP"
  switch fluorescence ratio: 1.12
- residue_codes: "AGCTGATAGG"
  study_system: "ATP"
  switch fluorescence ratio: 0.991
- residue_codes: "GCGAGCGATG"
  study_system: "ATP"
  switch fluorescence ratio: 0.999
- residue_codes: "TATTTAAAAC"
  study_system: "ATP"
  switch fluorescence ratio: 1.03
- residue_codes: "GAGCTCGTGG"
  study_system: "ATP"
  switch fluorescence ratio: 1.03
- residue_codes: "CGGGGAATAT"
  study_system: "ATP"
  switch fluorescence ratio: 0.993
- residue_codes: "AATTTTTGTT"
  study_system: "ATP"
  switch fluorescence ratio: 1
- residue_codes: "ATCTGAGTTG"
  study_system: "ATP"
  switch fluorescence ratio: 0.989
- residue_codes: "TCTTATTGGT"
  study_system: "ATP"
  switch fluorescence ratio: 1.01
- residue_codes: "AGGCGGGGTT"
  study_system: "ATP"
  switch fluorescence ratio: 1.01
- residue_codes: "TATACCTAGG"
  study_system: "ATP"
  switch fluorescence ratio: 1
- residue_codes: "AAGTATGGGG"
  study_system: "ATP"
  switch fluorescence ratio: 0.978
- residue_codes: "ATCTCGGGTG"
  study_system: "ATP"
  switch fluorescence ratio: 1.01
- residue_codes: "GGTTGCGTCG"
  study_system: "ATP"
  switch fluorescence ratio: 1.01
- residue_codes: "TCTGACAATC"
  study_system: "ATP"
  switch fluorescence ratio: 1.91
- residue_codes: "GAGTTTGTTT"
  study_system: "ATP"
  switch fluorescence ratio: 0.99
- residue_codes: "TCGGGGGGTT"
  study_system: "ATP"
  switch fluorescence ratio: 0.998
- residue_codes: "TATCGAGCAT"
  study_system: "ATP"
  switch fluorescence ratio: 1.03
- residue_codes: "GATTTGCCGG"
  study_system: "ATP"
  switch fluorescence ratio: 0.995
- residue_codes: "TGCCACGCTC"
  study_system: "ATP"
  switch fluorescence ratio: 1.06
- residue_codes: "TTCTTTTGTA"
  study_system: "ATP"
  switch fluorescence ratio: 1.06
- residue_codes: "ATTAAAAATG"
  study_system: "ATP"
  switch fluorescence ratio: 1.02
- residue_codes: "ATGAATGTTA"
  study_system: "ATP"
  switch fluorescence ratio: 1.01
- residue_codes: "AGAGTTGTGA"
  study_system: "ATP"
  switch fluorescence ratio: 1.02
- residue_codes: "GACTTTACGG"
  study_system: "ATP"
  switch fluorescence ratio: 1.06
- residue_codes: "CGCGTTGTGC"
  study_system: "ATP"
  switch fluorescence ratio: 1.11
- residue_codes: "GTTGGCGTGA"
  study_system: "ATP"
  switch fluorescence ratio: 1.01
- residue_codes: "TATTTATAGC"
  study_system: "ATP"
  switch fluorescence ratio: 1.02
- residue_codes: "GAGGTAGTCT"
  study_system: "ATP"
  switch fluorescence ratio: 1.07
- residue_codes: "TACGGGGACA"
  study_system: "ATP"
  switch fluorescence ratio: 1.07
- residue_codes: "AACTCGGATC"
  study_system: "ATP"
  switch fluorescence ratio: 1.01
- residue_codes: "CATAAAAACT"
  study_system: "ATP"
  switch fluorescence ratio: 1.06
- residue_codes: "TCATTTTCTT"
  study_system: "ATP"
  switch fluorescence ratio: 0.969
- residue_codes: "TGCAGTGTGC"
  study_system: "ATP"
  switch fluorescence ratio: 1.01
- residue_codes: "GATCAAATAT"
  study_system: "ATP"
  switch fluorescence ratio: 1.01
- residue_codes: "TTCTTACGTC"
  study_system: "ATP"
  switch fluorescence ratio: 1
- residue_codes: "GGAATTATTT"
  study_system: "ATP"
  switch fluorescence ratio: 1.02
- residue_codes: "CGATATGTAG"
  study_system: "ATP"
  switch fluorescence ratio: 1.02
- residue_codes: "GCCAGGGGGG"
  study_system: "ATP"
  switch fluorescence ratio: 1.01
- residue_codes: "GTGCTATTAT"
  study_system: "ATP"
  switch fluorescence ratio: 0.993
- residue_codes: "GAAGCCATAT"
  study_system: "ATP"
  switch fluorescence ratio: 1.48
